EXPERIMENT_SUMMARY: Determination of solubility
Type: physicochemical
TEST_SETTINGS: aqueous buffer, thermodynamic from solid; pH = 7.4, PBS buffer, 37° C. 1 h
Hi there, I'd appreciate the recorded solubility at 1 h for every entry that follows.
Give bare numbers, in µg/mL.

>>> df
                                   compound  result_value
0  Cc1cnc(-n2cccc(C(C)(C)O)c2=O)cc1-n1c(C)cc(OCc2ncccc2F)c(Cl)c1=O           773
1  Cc1cnc(-n2cccc(C(C)(C)O)c2=O)cc1-n1c(C)cc(OCc2ncc(F)cc2F)c(Cl)c1=O           595
2  Cc1cnc(-n2cccc(C(C)(C)O)c2=O)cc1-n1c(C)cc(OCc2ccccn2)c(Cl)c1=O           140
3  Cc1cnc(-n2cccc(C(C)(C)O)c2=O)cc1-n1c(C)cc(OCc2ncc(F)cc2F)cc1=O           234

// next item, solubility at 1 h requested
Ask: Give solubility at 1 h for the following compound: Cc1cnc(-c2ccnc(C(C)(C)O)n2)cc1-n1c(C)cc(OCc2ncc(F)cc2F)c(Cl)c1=O (racemic)
Reply: 26.8
